test_system: T1, Abz-LPESGK(Dnp)-CONH2
T1 chain: LPESGK
Assign class 1 to entries whose Avg kcat/KM meets or exceeds 5000; assign class 0 to the rest.

Avg kcat/KM >= 5000 for eSrtA(4S-3) (protein) QAKPQIPKDKSKVAGYIEIPDADIKEPVYPGPATREQLSRGVSFTEENESLDDQNISITGHTSIGRPNYQFTNLRAAKKGSMVYFKVGNETRKYKMTSIRNVKPTAVEVLDEQEGKDEQLTLVTCDDYNEETGVWETRKIFVATEVK ?
class 0

I'd appreciate it if you could say whether eSrtA(4S-6) (protein) QAKPQIPKDKSKVAGYIEIPDADIKEPVYPGPATREQLDRGVSFVEENESLDDQNISISGHTAIDRPNYQFTNLGAAKKGSMVYFKVGNETRKYKMTSIRNVKPTAVEVLDEQKGKDKQLTLVTCDDYNVETGVWETRKIFVATEVK has Avg kcat/KM at least equal to 5000.
class 1

Would you say eSrtA(4S-9) (protein) QAKPQIPKDKSKVAGYIEIPDADIKEPVYPGPATREQLDRGVCFVEENESLDDQNISITGHTAIDRPNYQFTNLRAAKKGSMVYLKVGNETRKYKMTSIRNVKPTAVEVLDEQKGKDKQLTLVTCDDYNFETGVWETRKIFVATEVK shows Avg kcat/KM at minimum 5000?
class 1

Entry eSrtA(4S-3.5) (protein) QAKPQIPKDKSKVAGYIEIPDADIKEPVYPGPATREQLNRGVSFTEENESLDDQNISITGHTFIDRPNYQFTNLKAAKKGSMVYFKVGNETRKYKMTSIRNVKPTAVEVLDEQKGKDKQLTLVTCDDYNEETGVWETRKIFVATEVK : is its Avg kcat/KM no less than 5000?
class 0
